As shown below, each of these compounds has a reported IC50 value.
# TARGET_OR_SYSTEM: Recombinant (1-346) HPK1 (h) (Homo sapiens, UniProt Q92918)
# Construct: Recombinant (1-346) HPK1 (h) is incubated with 8 mM MOPS pH 7.0
# Sequence (Q92918 1-346): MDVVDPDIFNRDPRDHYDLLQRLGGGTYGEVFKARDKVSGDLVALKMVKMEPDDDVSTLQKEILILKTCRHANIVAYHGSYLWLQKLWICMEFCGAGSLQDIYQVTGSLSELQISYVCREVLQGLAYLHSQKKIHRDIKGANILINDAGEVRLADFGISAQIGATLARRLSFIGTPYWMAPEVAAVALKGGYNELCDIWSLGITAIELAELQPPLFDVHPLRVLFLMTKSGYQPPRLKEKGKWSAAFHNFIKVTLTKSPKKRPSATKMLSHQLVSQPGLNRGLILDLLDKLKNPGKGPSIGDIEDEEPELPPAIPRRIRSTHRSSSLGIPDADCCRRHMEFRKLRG
# TEST_PROTOCOL: HPK1 Human STE Kinase Enzymatic Radiometric Assay
# Type: biochemical
# CONDITION: read-out: HPK1 IC50 nM Range*
QUANTITY_MEASURED: IC50

> print(dat)
                                chem.smiles      measured
1  COCCN1CCC2(CC1)CC(=O)c1cc(-c3cc(-c4ccc5c(c4)CCNC5=O)c(N)nc3F)ccc1O2  0.1 to 10 nM
2  CC(C)N1CCN(c2ccc(-c3cc(-c4cc(F)c5c(c4)CNC5=O)c(N)nc3F)cc2)CC1  11 to 100 nM
3  Nc1nc(F)c(-c2ccc(C3=CCN(C4COC4)CC3)cc2)cc1-c1ccc2c(c1)CCNC2=O  0.1 to 10 nM
4  COCCN1CCN(c2ccc(-c3cc(-c4ccc5c(c4)CCNC5=O)c(N)nc3F)cc2)CC1  0.1 to 10 nM

====

# TARGET_OR_SYSTEM: Recombinant (1-346) HPK1 (h) (Homo sapiens)
# Construct: Recombinant (1-346) HPK1 (h) is incubated with 8 mM MOPS pH 7.0
# TEST_PROTOCOL: HPK1 Human STE Kinase Enzymatic Radiometric Assay
# Format: biochemical
# CONDITION: read-out: HPK1 IC50 nM Range*
As shown below, each of these molecules has a reported IC50 value.
QUANTITY_MEASURED: IC50

> print(dat)
                                    molecule                          target.or.system      measured
 1  Nc1nc(F)c(-c2ccc(C3CCOCC3)c(CN3CCC3)n2)cc1-c1cc2c(cc1F)C(=O)NCC2  Recombinant (1-346) HPK1 (h) (Homo sapiens)  0.1 to 10 nM
 2  Nc1nc(F)c(-c2ccc(C3CCCN(CCO)C3)cc2)cc1-c1ccc2c(c1)CCNC2=O (stereo not shown)  Recombinant (1-346) HPK1 (h) (Homo sapiens)  0.1 to 10 nM
 3  CC(C)N1C[C@@H]2C[C@]2(c2ccc(-c3cc(-c4cc5c(cc4F)C(=O)NCC5)c(N)nc3F)cc2)C1  Recombinant (1-346) HPK1 (h) (Homo sapiens)  0.1 to 10 nM
 4  CCN(C)Cc1c(N2CCOCC2)ccc(-c2cc(-c3cc4c(cc3F)C(=O)NCC4)c(N)nc2F)c1F  Recombinant (1-346) HPK1 (h) (Homo sapiens)  11 to 100 nM
 5  Nc1nc(F)c(-c2ccc([C@]34CNC[C@H]3C4)cc2)cc1-c1ccc2c(c1)CCNC2=O  Recombinant (1-346) HPK1 (h) (Homo sapiens)  0.1 to 10 nM
 6  Nc1nc(F)c(-c2ccc(N3CCOCC3)c(CN3CCC3)n2)cc1-c1cc2c(cc1F)C(=O)NCC2  Recombinant (1-346) HPK1 (h) (Homo sapiens)  0.1 to 10 nM
 7  CN(C)Cc1cc(-c2cc(-c3ccc4c(c3)CCNC4=O)c(N)nc2F)ccc1OCC(F)F  Recombinant (1-346) HPK1 (h) (Homo sapiens)  11 to 100 nM
 8  COc1ccc(-c2cc(-c3ccc4c(c3)CCNC4=O)c(N)nc2F)cc1CN1CC(OC)C1  Recombinant (1-346) HPK1 (h) (Homo sapiens)  11 to 100 nM
 9  CC(C)N1CCC(F)(c2ccc(-c3cc(-c4ccc5c(c4)CCNC5=O)c(N)nc3F)cc2)CC1  Recombinant (1-346) HPK1 (h) (Homo sapiens)  0.1 to 10 nM
10  Cc1[nH]c(=O)c2ccc(-c3cc(-c4ccc(N5CCN(CC6CC6)CC5)cc4)c(F)nc3N)cc2c1F  Recombinant (1-346) HPK1 (h) (Homo sapiens)  0.1 to 10 nM
11  COCCN1CCC2(CC1)OCc1cc(-c3cc(-c4ccc5c(c4)CCNC5=O)c(N)nc3F)ccc1O2  Recombinant (1-346) HPK1 (h) (Homo sapiens)  0.1 to 10 nM
12  CC(c1cc(-c2cc(-c3ccc4c(c3)CCNC4=O)c(N)nc2F)ccc1O)N(C)C (stereo not shown)  Recombinant (1-346) HPK1 (h) (Homo sapiens)  11 to 100 nM
13  Nc1nc(F)c(-c2ccc(C3CCN(CC(F)(F)F)CC3)cc2)cc1-c1cc2c(cc1F)C(=O)NCC2  Recombinant (1-346) HPK1 (h) (Homo sapiens)  11 to 100 nM
14  CN1CCN(c2ccc(-c3cc(-c4ccc5c(c4)CCNC5=O)c(N)nc3F)c(Cl)c2)CC1  Recombinant (1-346) HPK1 (h) (Homo sapiens)  0.1 to 10 nM
15  CCN1CCC(c2ccc(-c3cc(-c4ccc5c(c4)CCNC5=O)c(N)nc3F)cc2)CC1  Recombinant (1-346) HPK1 (h) (Homo sapiens)  0.1 to 10 nM
16  Cc1cc2cc(-c3cc(-c4ccc(N5CCN(C(C)C)CC5)cc4)c(F)nc3N)cc(F)c2c(=O)[nH]1  Recombinant (1-346) HPK1 (h) (Homo sapiens)  0.1 to 10 nM

====

# TARGET_OR_SYSTEM: Lck (h) (Homo sapiens)
# Sequence (P06239 whole entry): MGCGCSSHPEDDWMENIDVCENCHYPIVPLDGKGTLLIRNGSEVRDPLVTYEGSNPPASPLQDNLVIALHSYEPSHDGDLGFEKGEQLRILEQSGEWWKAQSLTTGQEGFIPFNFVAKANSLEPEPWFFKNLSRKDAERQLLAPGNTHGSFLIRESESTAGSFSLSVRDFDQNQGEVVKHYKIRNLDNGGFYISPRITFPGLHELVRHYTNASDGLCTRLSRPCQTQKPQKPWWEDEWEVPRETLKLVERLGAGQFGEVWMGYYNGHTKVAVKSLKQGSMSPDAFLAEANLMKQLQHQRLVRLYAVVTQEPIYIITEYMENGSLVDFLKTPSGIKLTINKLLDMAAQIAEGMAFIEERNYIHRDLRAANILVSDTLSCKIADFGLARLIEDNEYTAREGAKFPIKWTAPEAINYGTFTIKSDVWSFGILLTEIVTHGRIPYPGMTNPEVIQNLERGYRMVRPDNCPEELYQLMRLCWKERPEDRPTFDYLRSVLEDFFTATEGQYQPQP
# TEST_PROTOCOL: Lck Human  Kinase Enzymatic Radiometric Assay
# Assay type: biochemical
# CONDITION: read-out: Lck IC50 nM Range*
Where a name gives a salt, the structure may show the parent alone.
QUANTITY_MEASURED: IC50

> print(dat)
                                    compound  quantity.measured        measured
 1  CCN1CC=C(c2ccc(-c3cc(-c4ccc5c(c4)CCNC5=O)c(N)nc3F)cc2)C1               IC50       > 1000 nM
 2  COC1CCN(Cc2cc(-c3cc(-c4cc5c(cc4F)C(=O)NCC5)c(N)nc3F)ccc2N2CCOCC2)C1 (stereo not shown)               IC50    11 to 100 nM
 3  CO[C@@H]1CCN(c2ccc(-c3cc(-c4ccc5c(c4)CCNC5=O)c(N)nc3F)cc2)C1               IC50       > 1000 nM
 4  Nc1nc(F)c(-c2ccc([C@@]34C[C@@H]3CN(C3CCOCC3)C4)cc2)cc1-c1ccc2c(c1)CCNC2=O               IC50       > 1000 nM
 5  CN1[C@@H]2CC[C@H]1CN(c1ccc(-c3cc(-c4ccc5c(c4)CCNC5=O)c(N)nc3F)cc1)C2               IC50  101 to 1000 nM
 6  COCCN1CCC2(CC1)OCc1cc(-c3cc(-c4ccc5c(c4)CCNC5=O)c(N)nc3F)ccc1O2               IC50       > 1000 nM
 7  Nc1nc(F)c(-c2ccc([C@]34C[C@H]3CN(CC3CC3)C4)cc2)cc1-c1cc(F)c2c(c1)CCNC2=O [I-320, formate]               IC50  101 to 1000 nM
 8  CC(C)N1CCCCC1c1ccc(-c2cc(-c3ccc4c(c3)CCNC4=O)c(N)nc2F)cc1 (stereo not shown)               IC50       > 1000 nM
 9  CC(C)N1CCC2(CCc3cc(-c4cc(-c5ccc6c(c5)CCNC6=O)c(N)nc4F)ccc3O2)CC1               IC50       > 1000 nM
10  CO[C@H]1CCN(c2ccc(-c3cc(-c4ccc5c(c4)CCNC5=O)c(N)nc3F)cc2)C1               IC50       > 1000 nM
11  CC(=O)N1CCN(c2ccc(-c3cc(-c4ccc5c(c4)CCNC5=O)c(N)nc3F)nc2)CC1               IC50       > 1000 nM
12  Nc1nc(F)c(-c2ccc(N3CCN(CCCC(F)F)CC3)cc2)cc1-c1cc(F)c2c(c1)CCNC2=O               IC50       > 1000 nM
13  CC(C)N1CC=C(c2ccc(-c3cc(-c4ccc5c(c4)CCNC5=O)c(N)nc3F)cc2)C1               IC50       > 1000 nM
14  Nc1nc(F)c(-c2ccc3c(c2)OCCCO3)cc1-c1ccc2c(c1)CCNC2=O               IC50       > 1000 nM
15  Nc1nc(F)c(-c2ccc(C3CCCCN3C3COC3)cc2)cc1-c1ccc2c(c1)CCNC2=O (stereo not shown)               IC50       > 1000 nM
16  Nc1nc(F)c(-c2ccc(OC3CCN(C(=O)CC4CC4)CC3)cc2)cc1-c1cc2c(cc1F)C(=O)NCC2               IC50       > 1000 nM
